assay: BSK_SAg_Proliferation: Cell Proliferation Assessment in the BioMAP Diversity Plus: SAg Assay (AID 2283095); conditions: primary human HUVEC with PBMC;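 note: relative cell number as total protein by SRB absorbance in sub-confluent culture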
The source made the active and inactive calls. Rule for the calls: active = hit-call score of the fitted dose curve at least 0.9, where 1 is the maximum; inactive = score below 0.9.
Outcome field: choose from 1 = active, 0 = inactive

For orientation, consider the following solved cases.
molecule: O=C(O)CCC(F)(F)C(F)(F)C(F)(F)F
label value: 0
//
molecule: CC(C)(C)c1cc(CCC(=O)NCCCCCCNC(=O)CCc2cc(C(C)(C)C)c(O)c(C(C)(C)C)c2)cc(C(C)(C)C)c1O
label value: 0
//
molecule: NC(O)(C(F)(F)F)C(F)(F)F
label value: 0
//
molecule: NC(=O)C(F)(F)C(F)(F)C(F)(F)F
label value: 0

Q. Look up the recorded call for O=C(Cl)C(F)(F)C(F)(F)C(F)(F)C(F)(F)C(F)(F)C(F)(F)F in this test.
A. 0

Q. # lookup: test call for FC(F)(F)C(F)(F)C(F)(F)C(F)(F)C(F)(F)C(F)(F)CC[Si](Cl)(Cl)Cl
A. 0

Q. Status in this test for O=C(O)C(F)(F)C(F)(F)C(F)(F)OC(F)(C(F)(F)F)C(F)(F)F ?
A. 0

----------
read-out: Basic fibroblast growth factor (bFGF), FGF2 (gene 2247); experiment: BSK_MyoF_bFGF: BioMAP Diversity Plus: MyoF Assay for Basic fibroblast growth factor (bFGF) Biomarker Activity (AID 2284246); settings: primary human lung fibroblasts
Calls of active or inactive are those of the source. How the source made its calls: active means hit-call score of the fitted dose curve at least 0.9, where 1 is the maximum; inactive means score below 0.9.
Use one of these outcomes when replying: TRUE for active, FALSE for inactive

molecule: O=S(=O)(O)CCC(F)(F)C(F)(F)C(F)(F)C(F)(F)F
label value: FALSE

Q. I would be grateful if you could indicate the recorded call for Cc1ccc(S(=O)(=O)C(I)I)cc1 .
A. TRUE

Q. For Nc1cc([N+](=O)[O-])cc(Cl)c1O , what call appears in the results of this test?
A. FALSE

----------
molecular target: Retinoic acid receptor RXR-alpha (Homo sapiens) (UniProt P19793); experiment: ATG_RXRa_TRANS: Attagene TRANS-FACTORIAL HepG2 Assay for human Retinoid X Receptor alpha (RXRa) (AID 2283012)
Sequence (P19793 whole entry, looked up): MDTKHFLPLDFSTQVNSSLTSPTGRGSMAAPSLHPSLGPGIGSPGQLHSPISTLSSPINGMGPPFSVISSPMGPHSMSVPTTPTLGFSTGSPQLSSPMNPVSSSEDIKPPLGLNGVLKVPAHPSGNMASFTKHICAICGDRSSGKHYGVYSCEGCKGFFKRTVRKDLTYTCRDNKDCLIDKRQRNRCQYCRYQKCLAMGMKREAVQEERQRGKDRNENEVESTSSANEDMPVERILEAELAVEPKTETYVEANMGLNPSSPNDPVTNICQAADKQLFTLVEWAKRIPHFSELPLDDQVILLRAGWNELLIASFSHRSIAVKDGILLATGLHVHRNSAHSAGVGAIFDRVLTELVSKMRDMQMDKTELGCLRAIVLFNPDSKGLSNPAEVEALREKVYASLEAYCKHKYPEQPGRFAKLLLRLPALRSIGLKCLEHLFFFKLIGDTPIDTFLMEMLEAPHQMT
Inconclusive results are not listed. The source made the active and inactive calls. How the source made its calls: active means hit-call score of the fitted dose curve at least 0.9, where 1 is the maximum; inconclusive means response in the unintended direction; inactive means score below 0.9.
Form entry, call: pick from T = active, F = inactive

Use the examples below as a reference point.
molecule: OCCCC(F)(F)C(F)(F)C(F)(F)C(F)(F)C(F)(F)C(F)(F)C(F)(F)C(F)(F)F
label value: T
--
molecule: OCC(F)(F)C(F)(F)C(F)(F)CO
label value: F
--
molecule: Brc1ccccn1
label value: F
--
molecule: C[C@]12CC[C@H]3C(=CCc4cc(O)ccc43)[C@@H]1CCC2=O
label value: F
--
molecule: CCN=C1C=CC(=C(c2ccc(N(CC)CC)cc2)c2ccc(N(CC)CC)cc2)c2ccccc21
label value: F

Q. // param item: O=C(O)C(F)(F)OC(F)(F)C(F)(F)OC(F)(F)C(F)(F)OC(F)(F)F ; yields the recorded call
A. F

Q. // return assay outcome for O=c1cccc[nH]1
A. F

Q. Test call, this compound: C=CC(=O)OCC(F)(F)C(F)(F)C(F)(F)COC(=O)C=C
A. F

Q. Hi, sorry to bother you, what did the test record for N#Cc1ccccc1O ?
A. F

----------
assay: BSK_SAg_PBMCCytotoxicity: PBMC Cytotoxicity Assessment in the BioMAP Diversity Plus: SAg Assay (AID 2283093); details: primary human HUVEC with PBMC;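 note: PBMC viability measured as Alamar Blue reduction fluorescence at 546/580 nm; fitted both ways against DMSO so a hit may be loss or gain of signal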
The source made the active and inactive calls. How the source made its calls: active means hit-call score of the fitted dose curve at least 0.9, where 1 is the maximum; inactive means score below 0.9.
Assign a class; possible classes are active, inactive

Some solved entries appear below for comparison.
compound: C=CC(=O)OCCC(F)(F)C(F)(F)C(F)(F)C(F)(F)F
label value: active
//
compound: O=C(O)C(F)(F)OC(F)(F)C(F)(F)OC(F)(F)C(F)(F)OC(F)(F)F
label value: inactive
//
compound: O=C(O)C(F)(F)C(F)(F)C(F)(F)OC(F)(C(F)(F)F)C(F)(F)F
label value: inactive
//
compound: O=C=Nc1cccc2c(N=C=O)cccc12
label value: inactive
//
compound: CC1=CC2C3C=CC(C3)C2C1C (stereo unspecified)
label value: inactive

Q. Query: recorded result category for NC(O)(C(F)(F)F)C(F)(F)F in this test
A. inactive

Q. Which outcome did this test record for the compound CO[Si](C)(CCC(F)(F)C(F)(F)C(F)(F)C(F)(F)C(F)(F)C(F)(F)F)OC ?
A. inactive

Q. // outcome(item) with item = O=C(O)CCC(F)(F)C(F)(F)C(F)(F)C(F)(F)C(F)(F)C(F)(F)C(F)(F)F
A. inactive

Q. Recorded test call requested for CCN(CC)c1ccc(C=O)cc1
A. inactive

Q. Entry OCC(F)(F)C(F)(F)C(F)(F)C(F)(F)C(F)(F)C(F)(F)CO : call = ?
A. inactive

Q. Just curious, what result did NC(=O)C(F)(F)C(F)(F)C(F)(F)C(F)F get here?
A. inactive

----------
read-out: C-C motif chemokine 2 (Homo sapiens); assay: BSK_KF3CT_MCP1: BioMAP Diversity Plus: KF3CT Assay for Monocyte Chemoattractant Protein 1 (MCP1/CCL2) Biomarker Activity (AID 2283073); details: primary human keratinocytes with fibroblasts; actives raise or lower the signal
Calls of active or inactive are those of the source. Rule for the calls: active = hit-call score of the fitted dose curve at least 0.9, where 1 is the maximum; inactive = score below 0.9.
Field 'call' accepts active, inactive

Solved cases (3 shown):
molecule: O=C=NCc1cccc(CN=C=O)c1
label value: inactive
//
molecule: C[Si](Cl)(Cl)CCC(F)(F)C(F)(F)C(F)(F)C(F)(F)C(F)(F)C(F)(F)F
label value: inactive
//
molecule: FC(F)(F)C(F)(F)C(F)(F)CC1CO1 (stereo unspecified)
label value: inactive

Q. Recorded test outcome, item CC(C)CCCC(C)CCO (stereo unspecified)
A. active

Q. Which result was noted for this molecule in the test: CC1=CC2C3C=CC(C3)C2C1C (stereo unspecified)
A. inactive

Q. # fetch the recorded call for OCC(O)CC(F)(F)C(F)(F)C(F)(F)C(F)(F)F (stereo unspecified) here
A. inactive

----------
experiment: BSK_BE3C_SRB: Viability Assessment in the BioMAP Diversity Plus: BE3C Assay (AID 2283028); conditions: primary human bronchial epithelial cells;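 note: measured 24 h after chemical dosing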
The source made the active and inactive calls. Rule for the calls: active = hit-call score of the fitted dose curve at least 0.9, where 1 is the maximum; inactive = score below 0.9.
// classify into 1 for active, 0 for inactive

compound: O=C(Cl)C(F)(F)C(F)(F)C(F)(F)C(F)(F)C(F)(F)C(F)(F)C(F)(F)F
label value: 0

Q. Called result for FC(F)(F)C(F)(F)C(F)(F)C(F)(F)C(F)(F)C(F)(F)CC[Si](Cl)(Cl)Cl
A. 0

Q. State the result this test recorded for NC(=O)C(F)(F)C(F)(F)C(F)(F)F .
A. 0

Q. Short answer needed: outcome of this test for O=C=NCc1cccc(CN=C=O)c1 ?
A. 0

Q. What did this assay record as the result for FC(F)(F)C(F)(F)C(F)(F)C(F)(F)C(F)(F)C(F)(F)C(F)(F)CCI ?
A. 0

Q. Hi team, can someone confirm the assay call for NCC(F)(F)C(F)(F)C(F)(F)C(F)(F)C(F)(F)C(F)(F)C(F)(F)C(F)(F)F ?
A. 0

----------
target: human Dopamine Transporter (DAT), SLC6A3 (gene 6531) (UniProt Q01959); assay: NVS_TR_hDAT: NovaScreen (NVS) Transporter Assay for human Dopamine Transporter (DAT) (AID 2283374);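 note: activity means loss of bound radioligand signal relative to DMSO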
Sequence (Q01959 whole entry, looked up): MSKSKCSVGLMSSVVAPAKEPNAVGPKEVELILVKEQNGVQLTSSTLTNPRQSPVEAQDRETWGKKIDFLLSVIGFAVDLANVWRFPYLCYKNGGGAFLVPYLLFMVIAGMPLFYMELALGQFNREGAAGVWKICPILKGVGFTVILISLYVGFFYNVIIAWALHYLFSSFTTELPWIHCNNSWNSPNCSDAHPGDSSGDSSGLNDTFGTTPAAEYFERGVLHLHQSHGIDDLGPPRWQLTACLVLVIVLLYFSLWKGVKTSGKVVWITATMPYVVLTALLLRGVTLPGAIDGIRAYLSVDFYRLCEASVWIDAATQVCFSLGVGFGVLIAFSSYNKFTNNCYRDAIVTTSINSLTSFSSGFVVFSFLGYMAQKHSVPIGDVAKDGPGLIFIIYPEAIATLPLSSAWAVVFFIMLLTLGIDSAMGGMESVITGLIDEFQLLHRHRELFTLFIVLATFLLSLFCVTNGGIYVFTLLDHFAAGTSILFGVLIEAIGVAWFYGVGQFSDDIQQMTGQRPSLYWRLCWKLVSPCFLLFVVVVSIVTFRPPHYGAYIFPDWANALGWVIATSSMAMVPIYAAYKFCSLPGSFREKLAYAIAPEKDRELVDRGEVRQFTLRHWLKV
Results filed as inconclusive are left out. The source made the active and inactive calls. Rule for the calls: active = hit-call score of the fitted dose curve at least 0.9, where 1 is the maximum; inconclusive = response in the unintended direction; inactive = score below 0.9.
In this exercise, the only acceptable responses are 1 (active), 0 (inactive)

Q. For O=C1C=CC(=O)N1c1ccc(Cc2ccc(N3C(=O)C=CC3=O)cc2)cc1 , which call appears in the assay record?
A. 0

Q. Which outcome was entered for the molecule O=C(c1ccccc1)c1ccc(Cl)cc1 in this test?
A. 1

Q. Name the outcome recorded for c1ccc(C[P+](c2ccccc2)(c2ccccc2)c2ccccc2)cc1 in the assay.
A. 1

Q. What was the test verdict on Cc1cc(O)c(C(C)(C)C)cc1C(C)(C)C ?
A. 1

Q. What did this assay record as the result for CCn1c2ccccc2c2ccccc21 ?
A. 0

----------
biological target: Estrogen receptor (Homo sapiens) (UniProt P03372); assay: NVS_NR_hER: NovaScreen (NVS) Nuclear Receptor Binding Assay for human Estrogen Receptor (ER) (AID 2283348)
Sequence (P03372 whole entry, looked up): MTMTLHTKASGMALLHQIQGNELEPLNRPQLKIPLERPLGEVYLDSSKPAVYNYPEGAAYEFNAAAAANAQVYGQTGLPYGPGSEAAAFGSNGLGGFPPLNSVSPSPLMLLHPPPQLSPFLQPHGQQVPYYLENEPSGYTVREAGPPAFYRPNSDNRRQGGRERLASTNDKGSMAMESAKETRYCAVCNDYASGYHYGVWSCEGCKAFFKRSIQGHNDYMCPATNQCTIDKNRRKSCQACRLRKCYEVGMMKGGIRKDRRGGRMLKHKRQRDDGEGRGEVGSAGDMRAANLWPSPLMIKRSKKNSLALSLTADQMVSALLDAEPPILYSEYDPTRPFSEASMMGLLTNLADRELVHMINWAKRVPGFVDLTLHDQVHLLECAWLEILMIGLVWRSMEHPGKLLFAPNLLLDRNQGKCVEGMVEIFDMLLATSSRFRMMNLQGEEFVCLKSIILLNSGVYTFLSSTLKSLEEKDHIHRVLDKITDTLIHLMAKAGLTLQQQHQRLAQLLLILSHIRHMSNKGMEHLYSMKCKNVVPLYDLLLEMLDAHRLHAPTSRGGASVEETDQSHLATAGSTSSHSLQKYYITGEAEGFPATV
Records with an inconclusive call do not appear. Calls of active or inactive are those of the source. The calls were made as follows: active = hit-call score of the fitted dose curve at least 0.9, where 1 is the maximum; inconclusive = response in the unintended direction; inactive = score below 0.9.
A correct response names exactly one class from active, inactive

Recorded results for 3 molecules are shown here.
molecule: O=C1C=CC(=O)N1c1ccc(Cc2ccc(N3C(=O)C=CC3=O)cc2)cc1
label value: inactive
//
molecule: CCN=c1cc2oc3cc(NCC)c(C)cc3c(-c3ccccc3C(=O)OCC)c-2cc1C
label value: active
//
molecule: CCN=C1C=CC(=C(c2ccc(N(CC)CC)cc2)c2ccc(N(CC)CC)cc2)c2ccccc21
label value: active

Q. Entry CCc1cc(Cc2cc(CC)c(N)c(CC)c2)cc(CC)c1N : call = ?
A. active

Q. What call does the record list for CCC(Cc1c(I)cc(I)c(N)c1I)C(=O)O (stereo unspecified) ?
A. inactive

Q. Field: outcome | Entry: CCCCCCCCCCCCCC[P+](CCCC)(CCCC)CCCC
A. active
